Sourced from paper PMC6178183

experiment description: Stability of analytes in rat plasma QC samples under storage conditions
Format: in vitro ADME
experimental parameters: rat plasma, n=6; low QC: spiked 20 ng/mL glycyrrhizic acid; 10 liquiritin; 2 emodin, gallic acid, ononin, schisandrin, stilbene glycoside; 1 isoliquiritigenin, liquiritigenin, rhein, verbascoside
value type: Measured Concentration, three freeze-thaw cycles (ng/mL)

As a guide, the following entries are already answered.
INSERT INTO measurements (input_smiles, unit_tag, experimental_value) VALUES
  ('O=C1C[C@@H](c2ccc(O)cc2)Oc2cc(O)ccc21', 'ng/mL', 0.89),
  ('O=C(O)c1cc(O)c(O)c(O)c1', 'ng/mL', 1.93);

a. CC1(C)[C@@H](O[C@H]2O[C@H](C(=O)O)[C@@H](O)[C@H](O)[C@H]2O[C@@H]2O[C@H](C(=O)O)[C@@H](O)[C@H](O)[C@H]2O)CC[C@]2(C)[C@H]3C(=O)C=C4[C@@H]5C[C@@](C)(C(=O)O)CC[C@]5(C)CC[C@@]4(C)[C@]3(C)CC[C@@H]12
b. O=C1C[C@@H](c2ccc(O[C@@H]3O[C@H](CO)[C@@H](O)[C@H](O)[C@H]3O)cc2)Oc2cc(O)ccc21
Asked: Of the pair a and b , name the member with the lesser recorded Measured Concentration, three freeze-thaw cycles. Answer with the label corresponding to your selection.
Given back: b

====

experiment description: Stability of analytes in rat plasma QC samples under storage conditions
Type: in vitro ADME
experimental parameters: prepared rat plasma samples, n=6; high QC: spiked 2000 ng/mL glycyrrhizic acid; 1000 liquiritin; 200 emodin, gallic acid, ononin, schisandrin, stilbene glycoside; 100 isoliquiritigenin, liquiritigenin, rhein, verbascoside
value type: Measured Concentration, auto-sampler for 12 h (ng/mL)

As a guide, the following entries are already answered.
INSERT INTO results (molecule, unit_tag, experimental_value) VALUES
  ('O=C(/C=C/c1ccc(O)cc1)c1ccc(O)cc1O [isoliquiritigenin]', 'ng/mL', 97.47),
  ('OC[C@H]1O[C@@H](Oc2c(O)cc(O)cc2/C=C/c2ccc(O)cc2)[C@H](O)[C@@H](O)[C@@H]1O [stilbene glycoside]', 'ng/mL', 182.40),
  ('O=C1C[C@@H](c2ccc(O)cc2)Oc2cc(O)ccc21 [liquiritigenin]', 'ng/mL', 92.65);

a. O=C(O)c1cc(O)c2c(c1)C(=O)c1cccc(O)c1C2=O [rhein]
b. COc1ccc(-c2coc3cc(O[C@@H]4O[C@H](CO)[C@@H](O)[C@H](O)[C@H]4O)ccc3c2=O)cc1 [ononin]
c. O=C1C[C@@H](c2ccc(O[C@@H]3O[C@H](CO)[C@@H](O)[C@H](O)[C@H]3O)cc2)Oc2cc(O)ccc21 [liquiritin]
Asked: Order these by Measured Concentration, auto-sampler for 12 h, descending, and give the full ranking. Your reply should list the labels following the order given in the request.
Given back: c, b, a
(c: 869.12 ng/mL, b: 195.34 ng/mL, a: 97.32 ng/mL)

====

experiment description: Pharmacokinetic study in rats after oral administration of TMYX extract (HPLC-MS/MS of plasma)
Type: in vivo, Sprague–Dawley rats
experimental parameters: male, Sprague-Dawley; rat plasma, oral TMYX extract 8.3 g/kg single dose, n=6; read-out: K e (converted)
value type: k el (s⁻¹)

As a guide, the following entries are already answered.
INSERT INTO results (input_smiles, unit_tag, experimental_value) VALUES
  ('CC1(C)[C@@H](O[C@H]2O[C@H](C(=O)O)[C@@H](O)[C@H](O)[C@H]2O[C@@H]2O[C@H](C(=O)O)[C@@H](O)[C@H](O)[C@H]2O)CC[C@]2(C)[C@H]3C(=O)C=C4[C@@H]5C[C@@](C)(C(=O)O)CC[C@]5(C)CC[C@@]4(C)[C@]3(C)CC[C@@H]12', 's⁻¹', '1.39e-05'),
  ('O=C(O)c1cc(O)c2c(c1)C(=O)c1cccc(O)c1C2=O', 's⁻¹', 0.000156);

a. COc1ccc(-c2coc3cc(O[C@@H]4O[C@H](CO)[C@@H](O)[C@H](O)[C@H]4O)ccc3c2=O)cc1
b. O=C(/C=C/c1ccc(O)cc1)c1ccc(O)cc1O
Asked: Of the pair a and b , name the member with the lesser recorded k el. Answer with the label corresponding to your selection.
Given back: b
(b: 1.94e-05 s⁻¹, a: 0.000103 s⁻¹)

====

experiment description: Pharmacokinetic study in rats after oral administration of TMYX extract (HPLC-MS/MS of plasma)
Format: in vivo, Sprague–Dawley rats
experimental parameters: male, Sprague-Dawley; rat plasma, oral TMYX extract 8.3 g/kg single dose, n=6
Procedure: The HPLC-MS/MS system consists of an Agilent 1200 high-performance liquid chromatography coupled with an Aglient 6430 series triple quadrupole mass spectrometer with an electrospray ionization (ESI) source. The chromatographic separation was achieved on a CORTECS C18 column (4.6 mm × 150 mm, 2.7 μm), and the column temperature was kept at 30°C. […] All data were analyzed by Mass Hunter workstation software (Agilent Technologies, USA). […]
value type: half-life (h)

As a guide, the following entries are already answered.
INSERT INTO results (molecule, value_type, experimental_value) VALUES
  ('CC1(C)[C@@H](O[C@H]2O[C@H](C(=O)O)[C@@H](O)[C@H](O)[C@H]2O[C@@H]2O[C@H](C(=O)O)[C@@H](O)[C@H](O)[C@H]2O)CC[C@]2(C)[C@H]3C(=O)C=C4[C@@H]5C[C@@](C)(C(=O)O)CC[C@]5(C)CC[C@@]4(C)[C@]3(C)CC[C@@H]12', 'half-life', 18.2),
  ('O=C1C[C@@H](c2ccc(O)cc2)Oc2cc(O)ccc21', 'half-life', 12.7),
  ('O=C(/C=C/c1ccc(O)cc1)c1ccc(O)cc1O', 'half-life', 13.5),
  ('OC[C@H]1O[C@@H](Oc2c(O)cc(O)cc2/C=C/c2ccc(O)cc2)[C@H](O)[C@@H](O)[C@@H]1O [stilbene glycoside]', 'half-life', 1.99),
  ('O=C1C[C@@H](c2ccc(O[C@@H]3O[C@H](CO)[C@@H](O)[C@H](O)[C@H]3O)cc2)Oc2cc(O)ccc21', 'half-life', 2.16),
  ('COc1ccc(-c2coc3cc(O[C@@H]4O[C@H](CO)[C@@H](O)[C@H](O)[C@H]4O)ccc3c2=O)cc1', 'half-life', 2.85),
  ('Cc1cc(O)c2c(c1)C(=O)c1cc(O)cc(O)c1C2=O', 'half-life', 4.21),
  ('O=C(O)c1cc(O)c2c(c1)C(=O)c1cccc(O)c1C2=O', 'half-life', 2.84),
  ('O=C(O)c1cc(O)c(O)c(O)c1', 'half-life', 3.01);

A. C[C@@H]1O[C@@H](O[C@@H]2[C@@H](O)[C@H](OCCc3ccc(O)c(O)c3)O[C@H](CO)[C@H]2OC(=O)/C=C/c2ccc(O)c(O)c2)[C@H](O)[C@H](O)[C@H]1O [verbascoside]
B. COc1cc2c(c(OC)c1OC)-c1c(cc(OC)c(OC)c1OC)C[C@](C)(O)[C@@H](C)C2
Asked: Of the pair A and B , name the member with the lesser recorded half-life. Answer with the label corresponding to your selection.
Given back: A

====

experiment description: Stability of analytes in rat plasma QC samples under storage conditions
Format: in vitro ADME
experimental parameters: rat plasma, n=6; high QC: spiked 2000 ng/mL glycyrrhizic acid; 1000 liquiritin; 200 emodin, gallic acid, ononin, schisandrin, stilbene glycoside; 100 isoliquiritigenin, liquiritigenin, rhein, verbascoside
value type: Measured Concentration, three freeze-thaw cycles (ng/mL)

A. O=C(/C=C/c1ccc(O)cc1)c1ccc(O)cc1O [isoliquiritigenin]
B. COc1ccc(-c2coc3cc(O[C@@H]4O[C@H](CO)[C@@H](O)[C@H](O)[C@H]4O)ccc3c2=O)cc1 [ononin]
C. O=C1C[C@@H](c2ccc(O[C@@H]3O[C@H](CO)[C@@H](O)[C@H](O)[C@H]3O)cc2)Oc2cc(O)ccc21 [liquiritin]
Asked: Hey, quick one: sort these by Measured Concentration, three freeze-thaw cycles, largest value first please. Your reply should list the labels following the order given in the request.
Given back: C, B, A

====

experiment description: Pharmacokinetic study in rats after oral administration of TMYX extract (HPLC-MS/MS of plasma)
Type: in vivo, Sprague–Dawley rats
experimental parameters: male, Sprague-Dawley; rat plasma, oral TMYX extract 8.3 g/kg single dose, n=6
value type: AUC(0-inf) (ng·h/mL)

INSERT INTO results (compound, unit_tag, experimental_value) VALUES
  ('Cc1cc(O)c2c(c1)C(=O)c1cc(O)cc(O)c1C2=O', 'ng·h/mL', 561),
  ('COc1ccc(-c2coc3cc(O[C@@H]4O[C@H](CO)[C@@H](O)[C@H](O)[C@H]4O)ccc3c2=O)cc1', 'ng·h/mL', 69.4),
  ('O=C(O)c1cc(O)c(O)c(O)c1', 'ng·h/mL', 238),
  ('COc1cc2c(c(OC)c1OC)-c1c(cc(OC)c(OC)c1OC)C[C@](C)(O)[C@@H](C)C2', 'ng·h/mL', 473);

I. O=C1C[C@@H](c2ccc(O)cc2)Oc2cc(O)ccc21
II. O=C1C[C@@H](c2ccc(O[C@@H]3O[C@H](CO)[C@@H](O)[C@H](O)[C@H]3O)cc2)Oc2cc(O)ccc21
III. O=C(O)c1cc(O)c2c(c1)C(=O)c1cccc(O)c1C2=O
IV. CC1(C)[C@@H](O[C@H]2O[C@H](C(=O)O)[C@@H](O)[C@H](O)[C@H]2O[C@@H]2O[C@H](C(=O)O)[C@@H](O)[C@H](O)[C@H]2O)CC[C@]2(C)[C@H]3C(=O)C=C4[C@@H]5C[C@@](C)(C(=O)O)CC[C@]5(C)CC[C@@]4(C)[C@]3(C)CC[C@@H]12
V. C[C@@H]1O[C@@H](O[C@@H]2[C@@H](O)[C@H](OCCc3ccc(O)c(O)c3)O[C@H](CO)[C@H]2OC(=O)/C=C/c2ccc(O)c(O)c2)[C@H](O)[C@H](O)[C@H]1O [verbascoside]
Asked: Order these by AUC(0-inf), descending, and give the full ranking. Your reply should list the labels following the order given in the request.
Given back: IV, II, I, III, V

I. O=C(/C=C/c1ccc(O)cc1)c1ccc(O)cc1O
II. OC[C@H]1O[C@@H](Oc2c(O)cc(O)cc2/C=C/c2ccc(O)cc2)[C@H](O)[C@@H](O)[C@@H]1O [stilbene glycoside]
Asked: Lab notebook, comparison: I versus II , higher AUC(0-inf) goes to which? Answer with the label corresponding to your selection.
Given back: I
(I: 436 ng·h/mL, II: 298 ng·h/mL)
